- System: surinam grass
- assay_comment: Test B pre/postemergence surinam grass
- Assay type: in vivo, Brachiaria decumbens
- condition: Rate 125 g/ha; Preemergence; scale of 0 to 10 where 0 is no effect and 10 is complete control
metric_name: B. signalgrass plant response rating
Give bare numbers.

Go through the items and report each one's B. signalgrass plant response rating.
1. CC(C)N(C(=O)n1oc(=O)n(CCC2CCCCC2)c1=O)c1ccc(F)cc1
2. CCC(=O)Cn1c(=O)on(C(=O)N(c2ccc(F)cc2)C(C)C)c1=O
3. COCCOCn1c(=O)on(C(=O)N(c2ccc(F)cc2)C(C)C)c1=O [Compound 220]

Reply:
1. 0
2. 0
3. 7

Task item: Reported B. signalgrass plant response rating for surinam grass, given COCCOCn1c(=O)on(C(=O)N(c2ccc(F)cc2)C(C)C)c1=O [Compound 258] ?
Reply: 4

This collection of values is drawn from patent US6737383B1.
